The origin of these recorded values is patent US20220323406A1.

System: ENR+CD organoids (ISC to Paneth cell differentiation)
testMethodNotes: Primary screen: CCh-stimulated lysozyme secretion LYZ.S, 2.5-D 384-well ENR+CD organoid differentiation
Assay type: cell-based, mouse
cond: primary screen, dose 0.08 uM, FC relative to plate median
Would you kindly list Dose.FC.LYZ.S for each of these compounds?
Write the value in log2 fold change as a bare number.

Query (compound): O=C1NC(=O)/C(=C/c2cccc(C(F)(F)F)c2)S1 ; field requested: Dose.FC.LYZ.S 0.036

Query (compound): Cl.NC(=O)c1cnc(N[C@@H]2CCCC[C@@H]2N)nc1Nc1cccc(-n2nccn2)c1 [PRT062607 (P505-15, BIIB057) HCl] ; field requested: Dose.FC.LYZ.S −0.033

Query (compound): O=C(Nc1ccccc1-c1cn2c(CN3CCNCC3)csc2n1)c1cnc2ccccc2n1 ; field requested: Dose.FC.LYZ.S 0.190

Query (compound): CC(C)[C@H](O)C(=O)N[C@@H](C)C(=O)N[C@@H]1C(=O)N(C)CCc2ccccc21 ; field requested: Dose.FC.LYZ.S −0.014

Query (compound): Cc1cc2c(cc1CC(=O)c1sccc1S(=O)(=O)Nc1onc(C)c1Cl)OCO2 [Sitaxentan sodium] ; field requested: Dose.FC.LYZ.S −0.017

Query (compound): CC(NC(=O)c1ccccc1/N=C/c1c(O)ccc2ccccc12)c1ccccc1 (stereo not drawn) ; field requested: Dose.FC.LYZ.S 0.077

Query (compound): CNC(=O)c1ccccc1Nc1nc(Nc2ccc(N3CCOCC3)cc2OC)ncc1Cl ; field requested: Dose.FC.LYZ.S −0.333

Query (compound): CCc1nc(N)nc(N)c1-c1ccc(Cl)cc1 ; field requested: Dose.FC.LYZ.S 0.042

Query (compound): COc1ccc(C2CNC(=O)C2)cc1OC1CCCC1 (stereo not drawn) [Rolipram, reference compound] ; field requested: Dose.FC.LYZ.S 0.239

Query (compound): O=C(/C=C/c1ccccc1)NC(NC(=S)Nc1ccc(Cl)cc1)C(Cl)(Cl)Cl (stereo not drawn) ; field requested: Dose.FC.LYZ.S 0.092

Query (compound): Cc1nnc(C(=O)NC(C)(C)c2nc(C(=O)NCc3ccc(F)cc3)c(O)c(=O)n2C)o1 ; field requested: Dose.FC.LYZ.S 0.137

Query (compound): CN(C)CCc1c[nH]c2ccc(Cn3cncn3)cc12 [Rizatriptan Benzoate] ; field requested: Dose.FC.LYZ.S 0.179

Query (compound): Cc1cc(OCCCS(C)(=O)=O)cc(C)c1-c1cccc(COc2ccc3c(c2)OC[C@H]3CC(=O)O)c1 ; field requested: Dose.FC.LYZ.S 0.212

Query (compound): Cc1nn(-c2ccccc2)c(C)c1/C=N/N1CCN(Cc2ccccc2)CC1 ; field requested: Dose.FC.LYZ.S 0.112

Query (compound): Oc1ccc(Nc2nc(-c3ccc(Cl)cc3)cs2)cc1 ; field requested: Dose.FC.LYZ.S 0.090

Query (compound): COc1cc2c(N3CCN(C(=O)Nc4ccc(OC(C)C)cc4)CC3)ncnc2cc1OCCCN1CCCCC1 ; field requested: Dose.FC.LYZ.S 0.145

Query (compound): O=S(=O)(c1ccccc1)c1cnc2c(N3CCNCC3)cccc2c1 ; field requested: Dose.FC.LYZ.S −0.055

Query (compound): COc1c(C)c(C(=O)c2ccc(N)c(C(=O)[O-])c2)n2ccccc12.[Na+] [SSR128129E] ; field requested: Dose.FC.LYZ.S 0.086
